test system: Hepatitis C virus; assay: Inhibition of Hepatitis C virus genotype 1b NS5B polymerase; parameters: species or system Hepatitis C virus subtype 1b
pIC50: −log10 of the molar value.
Entries and their measured pIC50 follow.
readout type: pIC50

CCCC(Nn1c(=O)c(C2=NS(=O)(=O)c3ccccc3N2)c(O)c2ccccc21)C(C)C (stereo not drawn); 5.95
Cc1ccsc1CNn1c(=O)c(C2=NS(=O)(=O)c3ccccc3N2)c(O)c2ccccc21; 5.92
O=c1c(C2=NS(=O)(=O)c3ccccc3N2)c(O)c2ccccc2n1NCc1ccc(Cl)s1; 5.84
